Target Or System: Dimer of Gag-Pol polyprotein [501-599,Q508K,L534I,L564I,C568A,C596A] (Human immunodeficiency virus 1, UniProt P03367, C568A/C596A/L534I/L564I/Q508K)
Construct: 501-599
Assay Protocol: Protease Inhibition Assay
Condition Context: pH 6.4; 25 °C
Measured Property: pIC50
Keep it numeric: pIC50 is minus log10 of the concentration in mol/L.

These recorded examples may help you get a feel for the data.
Molecule	Measurement
O=C(N[C@H]1c2ccccc2C[C@H]1O)[C@H](Cc1ccccc1)C[C@H](O)CN1C(=O)[C@@H](Cc2ccccc2)C[C@@H]1Cc1ccc(OCC(=O)N2CCOCC2)cc1 [pyrrolidinone based inhibitor 1k]	6.70
NC(=O)COc1ccc(C[C@H](C[C@H](O)CN2C(=O)[C@@H](Cc3ccccc3)C[C@@H]2Cc2ccccc2)C(=O)N[C@H]2c3ccccc3C[C@H]2O)cc1	6.44
O=C(N[C@H]1c2ccccc2C[C@H]1O)[C@H](Cc1ccc(OCC(=O)N2CCOCC2)cc1)C[C@H](O)CN1C(=O)[C@@H](Cc2ccccc2)C[C@@H]1Cc1ccccc1	7.20

Lab note: measured pIC50 of "O=C(N[C@H]1c2ccccc2C[C@H]1O)[C@H](Cc1ccc(Cc2ccccc2)cc1)C[C@H](O)CN1C(=O)[C@@H](Cc2ccccc2)C[C@@H]1Cc1ccccc1" was 6.04

Lab note: measured pIC50 of O=C(N[C@H]1c2ccccc2C[C@H]1O)[C@H](Cc1ccccc1)C[C@H](O)CN1C(=O)[C@@H](Cc2ccccc2)C[C@@H]1Cc1ccc(OCCN2CCOCC2)cc1 [pyrrolidinone based inhibitor 1g] was 6.02

---

Target Or System: Dimer of Gag-Pol polyprotein [501-599,Q508K,L534I,L564I,C568A,C596A] (Human immunodeficiency virus 1, UniProt P03367, C568A/C596A/L534I/L564I/Q508K)
Construct: 501-599
Assay Protocol: Protease Inhibition Assay
Condition Context: pH 6.4; 25 °C
Measured Property: Ki

These recorded examples may help you get a feel for the data.
Smiles Record	Ki
O=C(N[C@H]1c2ccccc2C[C@H]1O)[C@H](Cc1ccc(OCc2ccccn2)cc1)C[C@H](O)CN1C(=O)[C@@H](Cc2ccccc2)C[C@@H]1Cc1ccccc1	0.07 nM
O=C(N[C@H]1c2ccccc2C[C@H]1O)[C@H](Cc1ccc(OCCO)cc1)C[C@H](O)CN1C(=O)[C@@H](Cc2ccccc2)C[C@@H]1Cc1ccccc1	0.02 nM
O=C(N[C@H]1c2ccccc2C[C@H]1O)[C@H](Cc1ccc(OCCN2CCOCC2)cc1)C[C@H](O)CN1C(=O)[C@@H](Cc2ccccc2)C[C@@H]1Cc1ccccc1	0.14 nM
COCCOCCOc1ccc(C[C@H](C[C@H](O)CN2C(=O)[C@@H](Cc3ccccc3)C[C@@H]2Cc2ccccc2)C(=O)N[C@H]2c3ccccc3C[C@H]2O)cc1	0.02 nM
O=C(N[C@H]1c2ccccc2C[C@H]1O)[C@H](Cc1ccccc1)C[C@H](O)CN1C(=O)[C@@H](Cc2ccccc2)C[C@@H]1Cc1ccc(OCC(=O)N2CCOCC2)cc1	0.1 nM
O=C(N[C@H]1c2ccccc2C[C@H]1O)[C@H](Cc1ccccc1)C[C@H](O)CN1C(=O)[C@@H](Cc2ccccc2)C[C@@H]1Cc1ccc(OCCN2CCOCC2)cc1	1.3 nM
O=C(N[C@H]1c2ccccc2C[C@H]1O)[C@H](Cc1ccccc1)C[C@H](O)CN1C(=O)[C@@H](Cc2ccccc2)C[C@@H]1Cc1ccc(Cc2ccccc2)cc1	0.13 nM
O=C(N[C@H]1c2ccccc2C[C@H]1O)[C@H](Cc1ccc(OCC(=O)N2CCOCC2)cc1)C[C@H](O)CN1C(=O)[C@@H](Cc2ccccc2)C[C@@H]1Cc1ccccc1	0.02 nM

Lab note: measured Ki of "NC(=O)COc1ccc(C[C@H](C[C@H](O)CN2C(=O)[C@@H](Cc3ccccc3)C[C@@H]2Cc2ccccc2)C(=O)N[C@H]2c3ccccc3C[C@H]2O)cc1" was 0.07 nM

Lab note: measured Ki of "O=C(N[C@H]1c2ccccc2C[C@H]1O)[C@H](Cc1ccccc1)C[C@H](O)CN1C(=O)[C@@H](Cc2ccccc2)C[C@@H]1Cc1ccc(OCCO)cc1" was 0.3 nM

Lab note: measured Ki of "O=C(N[C@H]1c2ccccc2C[C@H]1O)[C@H](Cc1ccc(O)cc1)C[C@H](O)CN1C(=O)[C@@H](Cc2ccccc2)C[C@@H]1Cc1ccccc1" was 0.06 nM

Lab note: measured Ki of "CN1CCN(C(=O)COc2ccc(C[C@H](C[C@H](O)CN3C(=O)[C@@H](Cc4ccccc4)C[C@@H]3Cc3ccccc3)C(=O)N[C@H]3c4ccccc4C[C@H]3O)cc2)CC1" was 0.05 nM

Lab note: measured Ki of "O=C(N[C@H]1c2ccccc2C[C@H]1O)[C@H](Cc1ccc(OCCOC(=O)N2CCOCC2)cc1)C[C@H](O)CN1C(=O)[C@@H](Cc2ccccc2)C[C@@H]1Cc1ccccc1" was 0.05 nM

Lab note: measured Ki of "O=C(N[C@H]1c2ccccc2C[C@H]1O)[C@H](Cc1ccc(Cc2ccccc2)cc1)C[C@H](O)CN1C(=O)[C@@H](Cc2ccccc2)C[C@@H]1Cc1ccccc1" was 0.11 nM

---

Target Or System: Dimer of Gag-Pol polyprotein [501-599,Q508K,L534I,L564I,C568A,C596A] (Human immunodeficiency virus 1, UniProt P03367, C568A/C596A/L534I/L564I/Q508K)
Construct: 501-599
Assay Protocol: Protease Inhibition Assay
Condition Context: pH 6.4; 25 °C
Measured Property: IC50 (nM)
Give your result in nM as a bare value.

Smiles Record	IC50 / nM
O=C(N[C@H]1c2ccccc2C[C@H]1O)[C@H](Cc1ccccc1)C[C@H](O)CN1C(=O)[C@@H](Cc2ccccc2)C[C@@H]1Cc1ccc(O)cc1	200
O=C(N[C@H]1c2ccccc2C[C@H]1O)[C@H](Cc1ccc(OCCN2CCOCC2)cc1)C[C@H](O)CN1C(=O)[C@@H](Cc2ccccc2)C[C@@H]1Cc1ccccc1	83

# next compound below
Lab note: measured IC50 of "O=C(N[C@H]1c2ccccc2C[C@H]1O)[C@H](Cc1ccc(OCCO)cc1)C[C@H](O)CN1C(=O)[C@@H](Cc2ccccc2)C[C@@H]1Cc1ccccc1" was 94

---

IC50 for assorted compounds
Target Or System: Dimer of Gag-Pol polyprotein [501-599,Q508K,L534I,L564I,C568A,C596A] (Human immunodeficiency virus 1, UniProt P03367, C568A/C596A/L534I/L564I/Q508K)
Construct: 501-599
Assay Protocol: Protease Inhibition Assay
Condition Context: pH 6.4; 25 °C
Give your result in nM as a bare value.

These recorded examples may help you get a feel for the data.
Smiles Record	IC50, nM
O=C(N[C@H]1c2ccccc2C[C@H]1O)[C@H](Cc1ccccc1)C[C@H](O)CN1C(=O)[C@@H](Cc2ccccc2)C[C@@H]1Cc1ccc(OCCO)cc1	480
O=C(N[C@H]1c2ccccc2C[C@H]1O)[C@H](Cc1ccccc1)C[C@H](O)CN1C(=O)[C@@H](Cc2ccccc2)C[C@@H]1Cc1ccc(Cc2ccccc2)cc1	550
O=C(N[C@H]1c2ccccc2C[C@H]1O)[C@H](Cc1ccc(OCCOC(=O)N2CCOCC2)cc1)C[C@H](O)CN1C(=O)[C@@H](Cc2ccccc2)C[C@@H]1Cc1ccccc1	240
O=C(N[C@H]1c2ccccc2C[C@H]1O)[C@H](Cc1ccccc1)C[C@H](O)CN1C(=O)[C@@H](Cc2ccccc2)C[C@@H]1Cc1ccccc1	0.05
O=C(N[C@H]1c2ccccc2C[C@H]1O)[C@H](Cc1ccc(OCc2ccccn2)cc1)C[C@H](O)CN1C(=O)[C@@H](Cc2ccccc2)C[C@@H]1Cc1ccccc1	380
O=C(N[C@H]1c2ccccc2C[C@H]1O)[C@H](Cc1ccc(O)cc1)C[C@H](O)CN1C(=O)[C@@H](Cc2ccccc2)C[C@@H]1Cc1ccccc1	320
COCCOCCOc1ccc(C[C@H](C[C@H](O)CN2C(=O)[C@@H](Cc3ccccc3)C[C@@H]2Cc2ccccc2)C(=O)N[C@H]2c3ccccc3C[C@H]2O)cc1	93

Lab note: measured IC50 of "CN1CCN(C(=O)COc2ccc(C[C@H](C[C@H](O)CN3C(=O)[C@@H](Cc4ccccc4)C[C@@H]3Cc3ccccc3)C(=O)N[C@H]3c4ccccc4C[C@H]3O)cc2)CC1" was 130
